Tested on: K4 kissing-loop RNA reporter;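 further: bound reporter read as fluorescence of individual clusters on recovered sequencing chips by microscopy, with normalized cluster intensities fitted with a binding model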
Assay: apparent KD of K4 kissing-loop reporter; higher = weaker reporter binding
Settings: Eterna round: R107; input ligand: arginine 13.2 mM
Tick Met if apparent KD of K4 kissing-loop reporter is 200 nM or greater. Tick Not met if apparent KD of K4 kissing-loop reporter is less than 200 nM.

Example results:
UGACUGGACUGAAGGAGCGCUGAACUCCUAGUGAUGUUAGGACAACGAGACAAAGUCUCGAAGCAGGUAGGUCGCAGUCUAGUCU    Not met
GUGCAAAGCACCGGCACGAGCAGCCUAAAGGAGGAUAUGACGAAAGUCAGAAGGCCUAGUGAUGUUAGGCCUUGCUUGAGUCGAA [Omei KL FMN A Exc B v1]    Not met
CCAGUGAUAAACGAUACCAGAAAUACCUUAUUUGGCCGGCGGAGUGAUGUUCCUAAUACUUUCCCUUGGCAGCGUCGAAUGCUAG [theeternabot_sameState_KL_Theo_B_16]    Not met
AAAUAGAUCAGUCAUCCAGUGAUGUUGGAAGGAGCGUGCGAAAGCACAGGUAGGUCGCCAAAAUAAAACUGGCUGAUCAAAAUAA    Met
CGCGCUGCCUGAGGAUAUAGAAACGAGUGAUGUUCGUGGACAAGAGCCAGUGAUGUUGGGUUAUUUCUAGAAGGCAGGCGAUCGU [Exclusion FMN B GF5]    Not met
GGGAGCAAAGCUCCCGGAUGCUAUAGUCAGGAGGAUAUCUGGAAACAGAGAAGGCCUAAGCCAGUGAUGUUGGCUAUAAGCAUCC    Met
UGAUACCAGACGGCCGCCACUAGGACCGGGAGUGAUGUUCCCAAUUUAAAAUGCUCGGCCGCCACUAGGACCGGGUCUGGUAUCU [TrypBX 27 #DoubleAptamer #SwitchBubble]    Met
GUACGCUCCCGAGUGAUGUUCGGUAAUCGCGAGGAUAUCGCUUUUGCGAGAAGGCGCGGAAUGAGGAAACUCGUUCUGAGUGUAC [FMN A 25]    Not met
AGGGACGAUAGCGAUACCAGAGGUCGCAAAUUCGCGCCGUUUUUUAGGAAGUGAUGUUUUCUCCCUUGGCAGCGCCCUUAGAGUU [theeternabot_exclusion_KL_Theo_B_47]    Met
GCAAGAGAGUGAUGUUGUUUUGAUCAGGGCAAGGAUAUGCUAUAUAGCAGAAGGUGCCGUUUUCUGCUGGCUUUCGUUACCCAUU [theeternabot_exclusion_KL_FMN_A_6]    Met

Ask | Item UGAUACCAGACUGAUACCAGCUAGUGAUGUUAGCUGAUCUAAGGACCGUCAAAGACGGCUAGCCCUUGGCAGCAGUCUGGUAUCU [TheoBX 13 #SwitchBubble #StaticStem] with apparent KD of K4 kissing-loop reporter of 200 nM or above?
Reply | Not met

Ask | Item UGUCAUUGGUCGGCCGCCACUAGACGGAUCAUAAGAUCUGUCAAUAAGAGUGAUGUUCUAAAUAAUAGGACCGGGACCGAUGACU [TrypBS 27 #SwitchBubble #StaticStem] with apparent KD of K4 kissing-loop reporter of 200 nM or above?
Reply | Met

Ask | Item GAGAUAGAGGCGGCCGCCACUAGUGAUGUUAGUGAUGUUAGAUAGAGAAUAGAACAGAGGUAGGAUAGGACCGGGCCAGAUAGAG [whbob_SS_Tryp_B_w31] with apparent KD of K4 kissing-loop reporter of 200 nM or above?
Reply | Not met

Ask | Item UGGCGAGUGAUGUUCGUUGUUGUUGUGUGUCGAGGACCGGUACGGCCGCCACUCGAGUUGGUUGUUGUUGUUGCUGUUGUUGCUG [#04 K4 Tryptophan A Same State] with apparent KD of K4 kissing-loop reporter of 200 nM or above?
Reply | Not met

Ask | Item UGACAUUGCUCAGAUACCAGACAAGAGGAUCACCCUUGUGCCAAACGUACAAUAAUAAUUGUCCCUUGGCAGCUGAGCAAUGUCU [TheoBX 14] with apparent KD of K4 kissing-loop reporter of 200 nM or above?
Reply | Not met

Ask | Item UAUUAAUUGUCAGGAUAUCGAAAUCGAGUGAUGUUCGUAUAUCGACGAUAGUCGAUAUUAUUUAUACGAGAAGGGACAUUAUUUA [JR_SSFMNB_Sub003] with apparent KD of K4 kissing-loop reporter of 200 nM or above?
Reply | Met

Ask | Item UUGGUUGUCGUAGGAUAUGUAGGAUAUUCUAAAAUAUGAAGUGAUGUUUCUAUAAUAAGAAGAAGGACAGAAGGACGAUAACCAU [FmnBS 2 - Salish transfer #DoubleAptamer] with apparent KD of K4 kissing-loop reporter of 200 nM or above?
Reply | Not met

Ask | Item AGUACAAUGGCGGCCGCCACUCAAUGGCAGAUCAAAGAUCUGUAUCACUCAGUGAUGUUGAGUGAGAGGACCGGGCCUUUGUACA [Omei KL Tryp B SS B v9] with apparent KD of K4 kissing-loop reporter of 200 nM or above?
Reply | Met

Ask | Item AAGGCCACGAGAAGGAGCGUGCUAUGGAGUGAUGUUCCAGUGUAGACCUAAGGUCUACACGCACAGGUAGGUCGCUCGUGGUCAA [Omei KL Arginine B SS A v1] with apparent KD of K4 kissing-loop reporter of 200 nM or above?
Reply | Not met

Ask | Item ACUGAAAGAUCUGAUACCAGACUUUUUGUAUUUAUUAAAACUAGUGAUGUUAGUUUAUCAGUCCCUUGGCAGCAGUUACUACAGA [JR_Nu_ExcTheophyB_Sub024] with apparent KD of K4 kissing-loop reporter of 200 nM or above?
Reply | Not met
